System: Mus musculus
assay text: Antinociceptive activity in icv dosed C57BL/6J mouse assessed as tail withdrawal latency from warm water
Type: functional
readout type: ED50

structure smiles: C[C@@H]1NC(=O)[C@H]2CCCN2C(=O)[C@H](Cc2ccccc2)NC(=O)[C@@H](Cc2c[nH]c3ccccc23)NC1=O
readout type: ED50
assay result: 1.04 nmol
//
structure smiles: O=C1N[C@@H](Cc2ccccc2)C(=O)N2CCC[C@@H]2C(=O)N[C@@H](Cc2ccccc2)C(=O)N[C@H]1Cc1c[nH]c2ccccc12
readout type: ED50
assay result: 1.74 nmol
//
structure smiles: C[C@@H]1NC(=O)[C@H](Cc2c[nH]c3ccccc23)NC(=O)[C@H](Cc2ccccc2)NC(=O)[C@H]2CCCN2C1=O
readout type: ED50
assay result: 1.49 nmol
//
structure smiles: O=C1N[C@H](Cc2c[nH]c3ccccc23)C(=O)N[C@H](Cc2ccccc2)C(=O)N2CCC[C@@H]2C(=O)N[C@H]1Cc1ccccc1
readout type: ED50
assay result: 2.39 nmol
//
structure smiles: C[C@@H]1NC(=O)[C@H](Cc2ccccc2)NC(=O)[C@H]2CCCN2C(=O)[C@H](Cc2ccccc2)NC1=O
readout type: ED50
assay result: 6.97 nmol
//
structure smiles: C[C@@H]1NC(=O)[C@@H](Cc2c[nH]c3ccccc23)NC(=O)[C@H](Cc2ccccc2)NC(=O)[C@H]2CCCN2C1=O
readout type: ED50
assay result: 1.99 nmol
//
structure smiles: O=C1N[C@H](Cc2ccccc2)C(=O)N2CCC[C@@H]2C(=O)N[C@@H](Cc2ccccc2)C(=O)N[C@H]1Cc1c[nH]c2ccccc12
readout type: ED50
assay result: 0.75 nmol
